- assayed_target: ACAT (Rattus norvegicus)
- Construct: Rat liver microsomes are used as the source of ACAT; from tissue; host or cells: rat liver microsomes
- Sequence (Q7TQM4 whole entry): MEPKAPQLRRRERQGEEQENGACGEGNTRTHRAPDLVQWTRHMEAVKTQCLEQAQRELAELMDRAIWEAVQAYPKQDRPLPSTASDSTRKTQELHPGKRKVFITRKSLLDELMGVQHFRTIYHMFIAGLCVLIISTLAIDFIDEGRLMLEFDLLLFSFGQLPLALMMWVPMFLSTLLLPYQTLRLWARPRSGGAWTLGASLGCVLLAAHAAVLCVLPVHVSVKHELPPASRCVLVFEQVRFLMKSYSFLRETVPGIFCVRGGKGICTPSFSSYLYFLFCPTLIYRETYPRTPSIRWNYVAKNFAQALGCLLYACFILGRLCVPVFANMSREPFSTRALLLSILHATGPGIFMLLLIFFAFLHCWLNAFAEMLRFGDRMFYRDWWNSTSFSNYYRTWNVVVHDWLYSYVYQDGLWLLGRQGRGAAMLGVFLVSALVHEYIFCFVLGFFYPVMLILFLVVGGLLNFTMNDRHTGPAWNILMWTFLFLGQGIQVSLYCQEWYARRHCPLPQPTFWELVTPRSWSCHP
- run_description: ACAT Assay (in vitro)
- Type: biochemical
- condition_summary: Conc. 10 µM; negative = apparent stimulation; read-out: ACAT (in vitro) % Inhib.
measured_property: inhibition at 10 µM (%)
Hi! Could you send only the number? It should be in %, unit omitted.

Some molecules with recorded inhibition at 10 µM:
[[record]]
molecule = "COc1ccc(N2C(=O)[C@@H](CCCc3ccccc3)[C@@H]2c2cccc(OC(F)(F)F)c2)cc1 (relative stereo) [Example 1BL]"
assayed_target = "ACAT (Rattus norvegicus)"
unit_info = "%"
quantitative_result = 42

[[record]]
molecule = "CC[C@@]1(c2ccccc2)C(=O)N(c2ccc(OC)cc2)[C@H]1c1ccc(OC)cc1 (relative stereo) [Example 1CK]"
assayed_target = "ACAT (Rattus norvegicus)"
unit_info = "%"
quantitative_result = -12

[[record]]
molecule = "CCCCCCCCCCC1C(=O)N(c2c(OC)cc(OC)cc2OC)C1c1ccccc1 (stereo not shown) [Example 1U]"
assayed_target = "ACAT (Rattus norvegicus)"
unit_info = "%"
quantitative_result = 58

[[record]]
molecule = "CCCCCCCCCC[C@@]1(CC)C(=O)N(c2ccc(OC)cc2)[C@@H]1c1ccccc1 (stereo in doubt) [Example 3T]"
assayed_target = "ACAT (Rattus norvegicus)"
unit_info = "%"
quantitative_result = -9

[[record]]
molecule = "COc1ccc([C@@H]2N(c3ccc(OC)cc3)C(=O)[C@@]2(c2ccccc2)C2CCCC2)cc1 (relative stereo) [Example 7AD]"
assayed_target = "ACAT (Rattus norvegicus)"
unit_info = "%"
quantitative_result = -22


**Q:** Give inhibition at 10 µM for COc1ccc(N2C(=O)[C@H](CCCc3ccccc3)[C@@H]2c2ccc(C)cc2)cc1 (relative stereo) [Example 1BM]
**A:** 38

**Q:** Specify measured inhibition at 10 µM for CC[C@@]1(c2ccccc2)C(=O)N(c2ccc(OC)cc2)[C@H]1c1ccccc1 (relative stereo) [Example 1Z] .
**A:** -15
